quantity-measured: logP
Give only the figure.

In: Need logP, item O=C(NC(=O)c1c(F)cccc1F)Nc1ccc(Cl)cc1
Out: 3.88

In: logP lookup needed for Cc1cccc([N+](=O)[O-])c1C(=O)NC(=O)Nc1ccc(Cl)cc1 , thanks.
Out: 3.75

In: Given CNC(=O)NC(C)=O , state its recorded logP.
Out: -0.7

In: // query logP value for entry O=C(NC(=O)c1ccccc1)Nc1ccccc1
Out: 3.39

In: Please give the measured logP for this molecule: CNC(=O)NC(=O)c1ccccc1
Out: 1.27

In: Please look up its logP: COc1ccccc1C(=O)NC(=O)Nc1ccc(Cl)cc1
Out: 4.35

In: Quick check: logP of CCNC(=O)NC(=O)c1ccccc1 ?
Out: 1.92

In: Consider the molecule CNC(N)=O and give its measured logP.
Out: -1.4

In: # input molecule: O=C(NC(=O)c1c(F)cccc1F)Nc1ccc(F)cc1 ; wanted: its logP
Out: 3.2

In: What measured logP goes with CC(=O)NC(=O)Nc1ccccc1 ?
Out: 1.6

In: So what's the measured logP for this one? CCNC(=O)NC(C)=O
Out: -0.01
